# Assay Details: The drug is tested on Clostridium symbiosum strain: ATCC14940 for biotransformation. The drug concentrations were measured before and after a 12-h incubation by liquid-chromatography-coupled mass spectrometry (LC–MS)
# Assay Conditions: 2 µM
Assay Endpoint: Bacterial Biotransformation

Molecule	Assay Endpoint	Recorded Result
C[C@H]1O[C@@H](O[C@H]2[C@@H](O)C[C@H](O[C@H]3[C@@H](O)C[C@H](O[C@H]4CC[C@@]5(C)[C@H](CC[C@@H]6[C@@H]5C[C@@H](O)[C@]5(C)[C@@H](C7=CC(=O)OC7)CC[C@]65O)C4)O[C@@H]3C)O[C@@H]2C)C[C@H](O)[C@@H]1O	Bacterial Biotransformation	Compound NOT metabolized
CCN1CCCC1CNC(=O)c1cc(S(N)(=O)=O)ccc1OC (centres undefined) [SULPIRIDE]	Bacterial Biotransformation	Compound NOT metabolized
CC[C@@H](CO)NC(=O)[C@@H]1C=C2c3cccc4c3c(cn4C)C[C@H]2N(C)C1.O=C(O)/C=C\C(=O)O [METHYSERGIDE MALEATE]	Bacterial Biotransformation	Compound metabolized
CCCCC(=O)O[C@]1(C(=O)CO)[C@@H](C)C[C@H]2[C@@H]3CCC4=CC(=O)C=C[C@]4(C)[C@@]3(F)[C@@H](O)C[C@@]21C [BETAMETHASONE VALERATE]	Bacterial Biotransformation	Compound NOT metabolized
O=C1[C@H](CC[C@H](O)c2ccc(F)cc2)[C@@H](c2ccc(O)cc2)N1c1ccc(F)cc1	Bacterial Biotransformation	Compound NOT metabolized
O=C(O)CCc1nc(-c2ccccc2)c(-c2ccccc2)o1	Bacterial Biotransformation	Compound NOT metabolized
CCN(CC)CC#CCOC(=O)C(O)(c1ccccc1)C1CCCCC1.Cl (centres undefined) [OXYBUTYNIN CHLORIDE]	Bacterial Biotransformation	Compound metabolized
O=C(CCCN1CCC2(CC1)C(=O)NCN2c1ccccc1)c1ccc(F)cc1	Bacterial Biotransformation	Compound NOT metabolized
CCN(C(C)=O)c1cccc(-c2ccnc3c(C#N)cnn23)c1	Bacterial Biotransformation	Compound NOT metabolized
CC(C)(Oc1ccc(CCNC(=O)c2ccc(Cl)cc2)cc1)C(=O)O [BEZAFIBRATE]	Bacterial Biotransformation	Compound metabolized
C#C[C@]1(OC(C)=O)CC[C@H]2[C@@H]3CCC4=CC(=O)CC[C@@H]4[C@H]3CC[C@@]21C [NORETHINDRONE ACETATE]	Bacterial Biotransformation	Compound metabolized
CN1C(=O)CC(C)(c2ccccc2)C1=O (centres undefined) [METHSUXIMIDE]	Bacterial Biotransformation	Compound NOT metabolized
O=C([O-])C[C@H](O)C[C@H](O)/C=C/c1c(C2CC2)nc2ccccc2c1-c1ccc(F)cc1.O=C([O-])C[C@H](O)C[C@H](O)/C=C/c1c(C2CC2)nc2ccccc2c1-c1ccc(F)cc1.[Ca+2]	Bacterial Biotransformation	Compound NOT metabolized
CC[C@@]1(O)C(=O)OCc2c1cc1n(c2=O)Cc2cc3c(CN(C)C)c(O)ccc3nc2-1	Bacterial Biotransformation	Compound NOT metabolized
CN1CCC(=C2c3ccccc3CCc3cccnc32)CC1.O=C(O)/C=C\C(=O)O.O=C(O)/C=C\C(=O)O [AZATADINE MALEATE]	Bacterial Biotransformation	Compound NOT metabolized
Cc1ccnc2c1NC(=O)c1cccnc1N2C1CC1	Bacterial Biotransformation	Compound NOT metabolized
CCC1(c2ccc(N)cc2)CCC(=O)NC1=O (centres undefined) [AMINOGLUTETHIMIDE]	Bacterial Biotransformation	Compound NOT metabolized
Nc1nc(N)nc(-c2cc(Cl)ccc2Cl)n1.O=C(O)/C=C\C(=O)O [IRSOGLADINE MALEATE]	Bacterial Biotransformation	Compound NOT metabolized
OC(CCN1CCCCC1)(c1ccccc1)C1CC2C=CC1C2 (centres undefined)	Bacterial Biotransformation	Compound NOT metabolized
CN1CC(=O)N2[C@H](c3ccc4c(c3)OCO4)c3[nH]c4ccccc4c3C[C@@H]2C1=O	Bacterial Biotransformation	Compound NOT metabolized
Cc1cc2c(cc1S(N)(=O)=O)S(=O)(=O)CCC2	Bacterial Biotransformation	Compound NOT metabolized
Cc1ccccc1N1C(=O)c2cc(S(N)(=O)=O)c(Cl)cc2NC1C (centres undefined)	Bacterial Biotransformation	Compound NOT metabolized
CC(C)(C)NCC(O)c1cc(Cl)c(N)c(Cl)c1 (centres undefined)	Bacterial Biotransformation	Compound NOT metabolized
COc1cc(NC(C)CCCN)c2ncccc2c1.O=P(O)(O)O.O=P(O)(O)O (centres undefined) [PRIMAQUINE PHOSPHATE]	Bacterial Biotransformation	Compound metabolized
CC(C(=O)O)c1ccc2c(c1)Cc1cccnc1O2 (centres undefined)	Bacterial Biotransformation	Compound metabolized
CC(=O)OCC(=O)[C@@]12N=C(C)O[C@@H]1C[C@H]1[C@@H]3CCC4=CC(=O)C=C[C@]4(C)[C@H]3[C@@H](O)C[C@@]12C	Bacterial Biotransformation	Compound metabolized
CN1C[C@H](C(=O)N[C@]2(C)O[C@@]3(O)[C@@H]4CCCN4C(=O)[C@H](Cc4ccccc4)N3C2=O)C=C2c3cccc4[nH]cc(c34)C[C@H]21.CN1C[C@H](C(=O)N[C@]2(C)O[C@@]3(O)[C@@H]4CCCN4C(=O)[C@H](Cc4ccccc4)N3C2=O)C=C2c3cccc4[nH]cc(c34)C[C@H]21.O=C(O)C(O)C(O)C(=O)O [ERGOTAMINE TARTRATE]	Bacterial Biotransformation	Compound metabolized
CC(Oc1c(Cl)cccc1Cl)C1=NCCN1 (centres undefined)	Bacterial Biotransformation	Compound metabolized
CC1OC(OC2C(O)CC(OC3C(O)CC(OC4CCC5(C)C(CCC6C5CCC5(C)C(C7=CC(=O)OC7)CCC65O)C4)OC3C)OC2C)CC(O)C1O (centres undefined)	Bacterial Biotransformation	Compound NOT metabolized

----------
# Assay Details: The drug is tested on Bacteroides fragilis strain: ATCC43859 for biotransformation. The drug concentrations were measured before and after a 12-h incubation by liquid-chromatography-coupled mass spectrometry (LC–MS)
# Assay Conditions: 2 µM
Assay Endpoint: Bacterial Biotransformation

Compound	Assay Endpoint	Recorded Result
CC(C)(Oc1ccc(CCNC(=O)c2ccc(Cl)cc2)cc1)C(=O)O [BEZAFIBRATE]	Bacterial Biotransformation	Compound metabolized
c1ccc2[nH]c(-c3cscn3)nc2c1	Bacterial Biotransformation	Compound NOT metabolized
CCCc1nn(C)c2c(=O)[nH]c(-c3cc(S(=O)(=O)N4CCN(C)CC4)ccc3OCC)nc12.O=C(O)CC(O)(CC(=O)O)C(=O)O [SILDENAFIL CITRATE]	Bacterial Biotransformation	Compound NOT metabolized
CCCCC(=O)N(Cc1ccc(-c2ccccc2-c2nnn[nH]2)cc1)[C@H](C(=O)O)C(C)C	Bacterial Biotransformation	Compound metabolized
C[C@@H](c1ncncc1F)[C@](O)(Cn1cncn1)c1ccc(F)cc1F	Bacterial Biotransformation	Compound metabolized
CC(=O)Oc1ccc(C(c2ccc(OC(C)=O)cc2)c2ccccn2)cc1	Bacterial Biotransformation	Compound metabolized
CCc1nc(N)nc(N)c1-c1ccc(Cl)cc1	Bacterial Biotransformation	Compound NOT metabolized
Cc1cc2c(cc1S(N)(=O)=O)S(=O)(=O)CCC2	Bacterial Biotransformation	Compound NOT metabolized
CC1=C(CC(=O)O)c2cc(F)ccc2/C1=C\c1ccc([S+](C)[O-])cc1 (stereo not drawn)	Bacterial Biotransformation	Compound NOT metabolized
COc1ccc2cc([C@H](C)C(=O)O)ccc2c1	Bacterial Biotransformation	Compound metabolized
C[C@]12C=CC(=O)C=C1CC[C@@H]1[C@@H]2C(=O)C[C@@]2(C)[C@H]1CC[C@]2(O)C(=O)CO	Bacterial Biotransformation	Compound NOT metabolized
OC(CCN1CCCCC1)(c1ccccc1)C1CCCCC1 (stereo not drawn)	Bacterial Biotransformation	Compound NOT metabolized
CN(C)CCOC(C)(c1ccccc1)c1ccccn1.O=C(O)CCC(=O)O (stereo not drawn) [DOXYLAMINE SUCCINATE]	Bacterial Biotransformation	Compound NOT metabolized
CC#C[C@]1(O)CC[C@H]2[C@@H]3CCC4=CC(=O)CCC4=C3[C@@H](c3ccc(N(C)C)cc3)C[C@@]21C	Bacterial Biotransformation	Compound metabolized
Br.CN(C)CCCC1(c2ccc(F)cc2)OCc2cc(C#N)ccc21 (stereo not drawn) [CITALOPRAM HYDROBROMIDE]	Bacterial Biotransformation	Compound NOT metabolized
COCCc1ccc(OCC(O)CNC(C)C)cc1.COCCc1ccc(OCC(O)CNC(C)C)cc1.O=C(O)C(O)C(O)C(=O)O (stereo not drawn) [METOPROLOL TARTRATE]	Bacterial Biotransformation	Compound metabolized
Cc1ccc(S(=O)(=O)NC(=O)NN2CC3CCCC3C2)cc1 (stereo not drawn) [GLICLAZIDE]	Bacterial Biotransformation	Compound metabolized
CCOC(=O)[C@H](CCc1ccccc1)N[C@@H](C)C(=O)N1[C@H](C(=O)O)C[C@@H]2CCC[C@@H]21	Bacterial Biotransformation	Compound metabolized

----------
# Assay Conditions: segatella copri, 12 h, 2 µM
Assay Endpoint: Bacterial Biotransformation

Compound	Recorded Result
OCCOCCN1CCN(C2=Nc3ccccc3Sc3ccccc32)CC1 [QUETIAPINE]	Compound NOT metabolized
C[C@@H]1C[C@H]2[C@@H]3CCC4=CC(=O)C=C[C@]4(C)[C@@]3(F)[C@@H](O)C[C@]2(C)[C@@]1(O)C(=O)CO [DEXAMETHASONE]	Compound NOT metabolized
CS(=O)(=O)O.OC(CCN1CCCCC1)(c1ccccc1)c1ccccc1 [PRIDINOL METHANESULFONATE]	Compound NOT metabolized
CC(C)NCC(O)COc1ccc(COCCOC(C)C)cc1.CC(C)NCC(O)COc1ccc(COCCOC(C)C)cc1.O=C(O)/C=C/C(=O)O (stereo not drawn) [BISOPROLOL FUMARATE]	Compound NOT metabolized
COc1ccc(CCN(C)CCCC(C#N)(c2ccc(OC)c(OC)c2)C(C)C)cc1OC (stereo not drawn)	Compound metabolized
C#C[C@]1(OC(C)=O)CC[C@H]2[C@@H]3CCC4=CC(=O)CC[C@@H]4[C@H]3CC[C@@]21C [NORETHINDRONE ACETATE]	Compound metabolized
CCOC(=O)C1=C(C)NC(C)=C(C(=O)OC)C1c1cccc([N+](=O)[O-])c1 (stereo not drawn) [NITRENDIPINE]	Compound metabolized
CCN(CC)CCNC(=O)c1cc(Cl)c(N)cc1OC [METOCLOPRAMIDE]	Compound NOT metabolized
